Recorded measurements of GI50, one per entry
system: CAKI-1 renal; assay: NCI tumour cell line growth inhibition, 48 h

# annotated cases, reported GI50 shown
[
  {
    "MOLECULE": "Cc1ccc2c(NCCCN(C)C)c3c(C)nn(C)c3nc2c1",
    "GI50": "3.04 µM"
  },
  {
    "MOLECULE": "CN(CCO)C1CCN(c2ccc(Nc3ncc4c5ccnc(F)c5n(C5CCCC5)c4n3)nc2)CC1",
    "GI50": "4.44 µM"
  },
  {
    "MOLECULE": "CN1CCN(Cc2ccc(NC(=O)c3nc4ccc5[nH]ncc5c4c4c3CCCC4)cc2C(F)(F)F)CC1",
    "GI50": "0.816 µM"
  },
  {
    "MOLECULE": "CCN(CC)CCn1c(N)c(-c2nc3ccccc3n2C)c2nc(C#N)c(C#N)nc21",
    "GI50": "3.7 µM"
  }
]

Pending molecule:
[in] Input c1cc(N2CCN(c3ccc(C4=NCCN4)cc3)CC2)ccc1C1=NCCN1 , output reported GI50.
[out] > 57.5 µM
